- TARGET_OR_TEST_SYSTEM: GAL4 DBD-CfEcR(DEF)/VP16AD-MmRXRE (Choristoneura fumiferana)
- PROTOCOL_NOTES: 13B3 Assay (CHO stable cell line, luciferase reporter)
- COND: read-out: Fold Induction, 13B3 Assay, 33 uM
Note to self: values exactly at 1000 are 1. So fold induction at 33 µM at or above 1000 is 1, below is 0.

Solved cases (6 shown):
Request: Tell me whether fold induction at 33 µM is at least 1000 here: CCOC(=O)C(C)(C)N(NC(=O)c1cccc(OC)c1CC)C(=O)c1cc(C)cc(C)c1 [RG-115025]
Response: 1

Request: Tell me whether fold induction at 33 µM is at least 1000 here: COc1ccc(C(=O)N(NC(=O)c2ccc3c(c2C)OCCO3)C(C)(C)C)c(OC)n1 [RG-115517]
Response: 1

Request: Tell me whether fold induction at 33 µM is at least 1000 here: COc1cccc(C(=O)NN(C(=O)c2cc(C)cc(C)c2)C(C)(C)C)c1CSC [RG-115358]
Response: 0

Request: Tell me whether fold induction at 33 µM is at least 1000 here: COc1cccc(C(=O)NN(C(=O)c2cc(C)cc(C)c2)C(C)(C)C)c1CCl [RG-115490]
Response: 0

Request: Tell me whether fold induction at 33 µM is at least 1000 here: COc1cccc(C(=O)NN(C(=O)c2cc(C)cc(C)c2)C(C)(C)C)c1C [RG-102398]
Response: 0

Request: Tell me whether fold induction at 33 µM is at least 1000 here: CCc1c(OC)cccc1C(=O)NN(C(=O)c1cc(C)cc(C)c1)C(C)(C)C=O [RG-115407]
Response: 1

Next:
Request: Tell me whether fold induction at 33 µM is at least 1000 here: CCc1c(OC)cccc1C(=O)NN(C(=O)c1cc(C)cc(/C=N/NC(N)=O)c1)C(C)(C)C [RG-115429]
Response: 1
